Where do these numbers come from? They come from patent US6369088B2.

Listed compounds paired with reported melting point

These solved cases illustrate the format of a correct answer.
{"columns": ["smiles.str", "melting point"],
 "data": [
  ["CCCCCCCc1ccc(C(=O)Nc2ccc(-n3nc(OC)oc3=O)c(Cl)c2)cc1", "135 °C"],
  ["COc1nn(-c2ccc([N+](=O)[O-])c(C)c2)c(=O)o1", "112 °C"],
  ["Cc1cc(-n2nc(OC(C)C)oc2=O)ccc1NC(=O)OCc1ccccc1", "119 °C"],
  ["COc1nn(-c2ccc(NC(=O)NC3Cc4ccccc4C3)c(C)c2)c(=O)o1", "206 °C"],
  ["COc1nn(-c2ccc(NC(=O)N3CCCCC3)c(C)c2)c(=O)o1", "154 °C"]
]}

Below: the item to evaluate.
// query Endpoint output: melting point of `COc1nn(-c2ccc(Oc3ccc(Cl)cc3)c(N)c2)c(=O)o1` . Value?
// result 133 °C

====

# key: entry, value: melting point
Could you give me the number in °C? Just the number is fine.

{"columns": ["molecule", "unit.string", "recorded.measurement"],
 "data": [
  ["COc1nn(-c2ccc(NC(=O)Cc3ccc(Cl)cc3)c(C)c2)c(=O)o1 [Example 31]", "°C", 190],
  ["CCOc1nn(-c2ccc(NC(=O)OCc3ccccc3)c(C)c2)c(=O)o1 [Example 74]", "°C", 94],
  ["COc1nn(-c2ccc(NC(=O)Nc3ccc(Cl)c(Cl)c3)c(C)c2)c(=O)o1 [Example 42]", "°C", 210],
  ["COc1nn(-c2ccc(N)c(OCc3ccc(F)cc3)c2)c(=O)o1 [Example 29]", "°C", 195]
]}

// query Return reported melting point; argument: COc1nn(-c2ccc(NC(=O)OCc3ccccc3)cc2C)c(=O)o1 [Example 65]
// result 112

====

# tested.system: hormone-sensitive lipase (HSL) (Rattus norvegicus, UniProt P15304)
# Construct: Isolated rat fat cells were obtained from epididymal adipose tissue; from tissue; host or cells: rat epididymal adipose tissue (isolated fat cells, Wistar rats)
# Sequence (P15304 301-1068): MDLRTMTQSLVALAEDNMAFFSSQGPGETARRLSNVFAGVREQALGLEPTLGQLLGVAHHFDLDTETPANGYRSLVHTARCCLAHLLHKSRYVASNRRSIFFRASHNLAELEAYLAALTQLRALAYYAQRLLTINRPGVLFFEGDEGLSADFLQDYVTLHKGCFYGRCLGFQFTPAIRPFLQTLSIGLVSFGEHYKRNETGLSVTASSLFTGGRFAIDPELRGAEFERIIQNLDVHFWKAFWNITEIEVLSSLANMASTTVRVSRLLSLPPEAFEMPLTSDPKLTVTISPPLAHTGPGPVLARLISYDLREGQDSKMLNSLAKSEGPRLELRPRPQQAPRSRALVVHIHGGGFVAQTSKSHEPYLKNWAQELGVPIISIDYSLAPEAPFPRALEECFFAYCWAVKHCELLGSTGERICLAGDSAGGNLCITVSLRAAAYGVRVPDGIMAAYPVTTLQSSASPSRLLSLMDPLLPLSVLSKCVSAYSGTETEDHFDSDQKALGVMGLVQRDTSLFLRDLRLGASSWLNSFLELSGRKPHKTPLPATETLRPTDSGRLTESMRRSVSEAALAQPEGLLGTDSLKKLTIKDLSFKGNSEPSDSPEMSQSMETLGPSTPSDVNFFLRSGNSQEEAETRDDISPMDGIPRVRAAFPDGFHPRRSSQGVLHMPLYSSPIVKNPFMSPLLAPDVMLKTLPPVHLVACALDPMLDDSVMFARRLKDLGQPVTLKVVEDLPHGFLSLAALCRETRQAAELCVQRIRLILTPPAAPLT
# test.name: HSL enzyme assay: [3H]trioleoylglycerol hydrolysis by partially purified HSL
# Type: biochemical
# setup.conditions: partially purified HSL from rat fat cells; [3H]trioleoylglycerol substrate; 37° C., 30 min; read-out: IC50
Measured pIC50, listed per entry for reference.
API: returns pIC50 as number; meaning -log10 of concentration in mol/L.

// worked examples, pIC50 included
{"columns": ["smiles.str", "tested.system", "recorded.measurement"],
 "data": [
  ["COc1nn(-c2ccc(NC(=O)Nc3ccc(Cl)c(Cl)c3)c(C)c2)c(=O)o1", "hormone-sensitive lipase (HSL) (Rattus norvegicus, UniProt P15304)", 6.00],
  ["COc1nn(-c2ccc(N)c(C)c2)c(=O)o1", "hormone-sensitive lipase (HSL) (Rattus norvegicus, UniProt P15304)", 5.22]
]}

// query Recorded pIC50 of `COc1nn(-c2ccc(NC(=O)OCc3ccccc3)c(C)c2)c(=O)o1` , please.
// result 7.00

====

Flag rule - melting point less than 100 °C flags Yes; the remaining entries get No.

Example results:
{"columns": ["compound", "assigned.class"],
 "data": [
  ["COc1nn(-c2ccc(NS(=O)(=O)c3ccccc3Cl)cc2)c(=O)o1 [Example 44]", "No"],
  ["COc1nn(-c2ccc(NC(=O)Nc3ccccn3)cc2)c(=O)o1 [Example 59]", "Yes"],
  ["COc1nn(-c2ccc(NC(=O)c3ccc(OC(F)(F)F)cc3)cc2C)c(=O)o1 [Example 66]", "No"]
]}

// query Identify whether the compound COc1nn(-c2ccc(NS(=O)(=O)c3ccc(Cl)cc3)c(C)c2)c(=O)o1 [Example 37] records melting point below 100 °C.
// result No

====

# tested.system: hormone-sensitive lipase (HSL) (Rattus norvegicus, UniProt P15304)
# Construct: Isolated rat fat cells were obtained from epididymal adipose tissue; from tissue; host or cells: rat epididymal adipose tissue (isolated fat cells, Wistar rats)
# test.name: HSL enzyme assay: [3H]trioleoylglycerol hydrolysis by partially purified HSL
# Format: biochemical
# setup.conditions: partially purified HSL from rat fat cells; [3H]trioleoylglycerol substrate; 37° C., 30 min; read-out: IC50
Attribute: pIC50
Bear in mind: pIC50 is minus log10 of a mol/L concentration; give just that figure.

{"columns": ["smiles.str", "recorded.measurement"],
 "data": [
  ["CCCCCCCc1ccc(C(=O)Nc2ccc(-n3nc(OC)oc3=O)c(Cl)c2)cc1", 7.70],
  ["CCOc1nn(-c2ccc(NC(=O)OCc3ccccc3)c(C)c2)c(=O)o1", 7.40],
  ["COc1nn(-c2ccc(NC(=O)c3ccccc3F)cc2)c(=O)o1", 7.52],
  ["COc1nn(-c2ccc(NC(C)=CC(C)=O)c(C)c2)c(=O)o1", 6.00],
  ["CCOc1ccccc1NC(=O)Nc1ccc(-n2nc(OC)oc2=O)cc1", 6.70]
]}

// query Which pIC50 is reported with hormone-sensitive lipase (HSL) (Rattus norvegicus, UniProt P15304) for this entry: `COc1nn(-c2ccc(NC(=O)OCc3ccccc3)c(OCc3ccc(F)cc3)c2)c(=O)o1` ?
// result 6.70

// query How about this molecule: `COc1nn(-c2ccc(NS(=O)(=O)c3ccc(OC)c(OC)c3)cc2)c(=O)o1`
// result 6.60

// query Moving on to the next molecule: `COc1nn(-c2ccc(NC(=O)CCCC(=O)c3ccccc3)cc2)c(=O)o1`
// result 7.00

// query Thanks! And `COc1nn(-c2ccc(-n3c(C)ccc3C)c(C)c2)c(=O)o1` ?
// result 6.00

====

# tested.system: hormone-sensitive lipase (HSL) (Rattus norvegicus, UniProt P15304)
# Construct: Isolated rat fat cells were obtained from epididymal adipose tissue; from tissue; host or cells: rat epididymal adipose tissue (isolated fat cells, Wistar rats)
# test.name: HSL enzyme assay: [3H]trioleoylglycerol hydrolysis by partially purified HSL
# Assay type: biochemical
assay.readout: IC50 (µM)
# number only, unit µM dropped from output

// query Request the reported IC50 associated with `COc1nn(-c2ccc(NCc3ccc(C#N)cc3)cc2)c(=O)o1`
// result 0.5

====

Measured pIC50, listed per entry.
# tested.system: hormone-sensitive lipase (HSL) (Rattus norvegicus, UniProt P15304)
# Construct: Isolated rat fat cells were obtained from epididymal adipose tissue; from tissue; host or cells: rat epididymal adipose tissue (isolated fat cells, Wistar rats)
# test.name: HSL enzyme assay: [3H]trioleoylglycerol hydrolysis by partially purified HSL
# Type: biochemical
# setup.conditions: partially purified HSL from rat fat cells; [3H]trioleoylglycerol substrate; 37° C., 30 min; read-out: IC50
Counter-ions that a name gives are not always drawn.
Reminder that pIC50 means the negative base-10 logarithm of the concentration expressed in mol/L.

{"columns": ["compound", "tested.system", "pIC50"],
 "data": [
  ["COc1nn(-c2ccc(NCc3ccc(OCc4ccccc4)cc3)cc2)c(=O)o1 [Example 136, trifluoroacetate]", "hormone-sensitive lipase (HSL) (Rattus norvegicus, UniProt P15304)", 6.30]
]}

// query What value of pIC50 has been recorded for this entry: `CCCCc1ccc(S(=O)(=O)Nc2ccc(-n3nc(OC)oc3=O)cc2)cc1`
// result 6.00

// query What about `COc1nn(-c2ccc(NC(=O)c3ccc(C(C)(C)C)cc3)cc2)c(=O)o1` ?
// result 7.52

// query Request: CCCCCC=CCCCNc1cccc(-n2nc(OC)oc2=O)c1 [Example 171, trifluoroacetate]
// result 6.22

// query How about this compound: `COc1nn(-c2ccc(NS(=O)(=O)C=Cc3ccccc3)c(C)c2)c(=O)o1`
// result 6.00

// query Item: `CCCCCCCC(=O)Nc1ccc(-n2nc(OC)oc2=O)cc1C`
// result 5.52

// query Also need `CCCCCCCCCCC(=O)Nc1ccc(-n2nc(OC)oc2=O)cc1` , thanks.
// result 6.92

// query Query `COc1nn(-c2cccc(NCc3ccccc3)c2)c(=O)o1` next
// result 6.10

// query Lookup `COc1nn(-c2cccc(OCc3ccc(F)cc3)c2[N+](=O)[O-])c(=O)o1`
// result 6.00

// query Now consider `COc1nn(-c2ccc(NS(=O)(=O)c3ccc(Cl)cc3)c(C)c2)c(=O)o1` and answer again.
// result 6.00

// query Also check `CCCCCCCc1ccc(C(=O)Nc2ccc(-n3nc(OC)oc3=O)cc2)cc1`
// result 6.70

// query Then what about the compound CCCCCCOc1ccc(CNc2ccc(-n3nc(OC)oc3=O)cc2)cc1 [Example 142, trifluoroacetate] ?
// result 6.70

// query Query `COc1nn(-c2ccc(NC(=O)Cc3ccc(Cl)cc3)cc2)c(=O)o1` next
// result 6.00

// query Try this compound too: `COc1nn(-c2ccc(NS(=O)(=O)c3cccc4ccccc34)c(C)c2)c(=O)o1`
// result 6.00

====

assay.readout: melting point (°C)
Write it as a number; the unit °C goes unstated.

Use the examples below as a reference point.
{"columns": ["smiles.str", "recorded.measurement"],
 "data": [
  ["COc1nn(-c2ccc(NC(=O)c3ccc(C(C)(C)C)cc3)c(F)c2)c(=O)o1", 144],
  ["COc1nn(-c2ccc([N+](=O)[O-])cc2C)c(=O)o1", 111],
  ["COc1nn(-c2ccc(NC(=O)OCc3ccccc3Cl)c(C)c2)c(=O)o1", 161],
  ["COc1nn(-c2cccc(OCc3ccc(F)cc3)c2[N+](=O)[O-])c(=O)o1", 99],
  ["COc1nn(-c2ccc([N+](=O)[O-])c(F)c2)c(=O)o1", 127],
  ["COc1ccc2cc(C(=O)Nc3ccc(-n4nc(OC)oc4=O)cc3)oc2c1", 191]
]}

// query I am curious: what melting point value has been reported for `COc1nn(-c2ccc(NS(=O)(=O)c3cccc4ccccc34)c(C)c2)c(=O)o1` ?
// result 123

// query Note, next up: `COc1nn(-c2ccc(N(C)C)c(C)c2)c(=O)o1`
// result 71

// query Further, for `COc1nn(-c2cccc(N)c2)c(=O)o1` ?
// result 95
